target: ΔImpα3, truncated importin α3 lacking the importin β-binding (IBB) domain (human); test: BLI; BLItz; His-tagged Impα3 or ΔImpα3 immobilised on His-tag biosensors at 0.3 µM; peptides 1-7 µM; manufacturer's buffer; 25 °C; pseudo-first-order plots; apparent
Property Measured: pKd
FYI, pKd means -log10 of a concentration in mol per litre.

Inquiry: # get_value(readout='pKd', item= Ac-YKLFQEQQNEGHGEALLFEGIKKKKQQKI-NH2 [NLS2-PADI4 peptide] )
Reply text: 4.92
